test description: DUSP6 inhibitors restoring Erk phosphorylation by chemical complementation, primary imaging in DUSP6-transfected HeLa (AID 609)
study conditions: HeLa MKP-3 transfected, phospho-Erk imaging KS statistic; measured here: nuclear c-Myc green intensity z-score; at 10 µM; cells stimulated with TPA for 15 min
measurement name: z-score
// response body must contain only the number

Req: Provide one value: measured z-score of COc1cccc(NC(=O)c2cc(C(=O)Nc3cccc(OC)c3)n(C)n2)c1
Resp: 0.197

Req: Using known records, supply z-score for Nc1nnnn1/N=C/c1ccco1
Resp: 0.245

Req: Give recorded z-score. CCCCOC(=O)CSC1=C(C#N)C(c2ccc3c(c2)OCO3)CC(=O)N1 (stereo unspecified)
Resp: 0.113

Req: Supply z-score value. Item: O=C(Oc1oc(-c2ccco2)nc1C=Nc1ccccc1)c1ccco1
Resp: 1.67

Req: Given N#Cc1nc(COc2ccc(Cl)cc2)oc1N1CCN(Cc2ccccc2)CC1 , respond with its z-score.
Resp: 0.047

Req: Input O=C1C=C(N2CCN(C3=CC(=O)CCC3)CC2)CCC1 , output reported z-score.
Resp: 2.6

Req: Read the entry COc1ccc2nc(/N=C(\N)NC(=O)C(C)(C)C)nc(C)c2c1 and write its reported z-score.
Resp: -0.163

Req: Item Cn1c(=O)c2c(nc(Oc3ccc4c(c3)OCO4)n2Cc2ccc(Br)cc2)n(C)c1=O : provide z-score
Resp: -0.507

Req: Identify measured z-score corresponding to Cn1c(=O)[nH]c2cc(Cl)cnc21
Resp: -0.334

Req: Please give measured z-score of the following entry: FC(F)(F)c1cccc(N2CCc3cn[nH]c32)c1
Resp: 0.954

Req: Report z-score, nothing else, for this compound: Cn1ncc2nc[nH]c(=O)c21
Resp: -0.543

----------
test description: DUSP6 inhibitors restoring Erk phosphorylation by chemical complementation, primary imaging in DUSP6-transfected HeLa (AID 609)
study conditions: HeLa MKP-3 transfected, phospho-Erk imaging KS statistic; measured here: nuclear pErk red intensity z-score; at 10 µM; stronger effect = higher value; cells stimulated with TPA for 15 min
Answer each item with its documented z-score.
Answer with a number only.

Req: Give z-score for COc1ccccc1C(=O)Nc1cc(Cl)ccc1O
Resp: 1.34

Req: Please list z-score recorded for the compound CSc1nc2sc3c(c2c2nncn12)CCC3
Resp: -0.539

Req: Identify z-score associated with the compound O=C1NC(=O)C(c2cn(-c3ccccc3)nc2-c2ccc(F)cc2)N1 (centres undefined)
Resp: -0.862

Req: Identify measured z-score corresponding to Cc1cc(=O)oc(C)c1C(=O)NCC(C)C
Resp: -0.541

----------
test description: inhibitors of TNFa-induced NFkB p65 translocation, primary screen, imaging, HUVEC, MLSMR starter and 10KST1 sets (AID 438);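 also: compound added about 3h40 before a 20 min TNFalpha stimulation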
study conditions: HUVEC TNFa-induced p65 nuclear translocation; measured here: nuclei count (cytotoxicity indicator), at 2.08 µM
Please respond with reported cell count for every item in the list.
Hey, just send me the number, nothing else.

Req: Give cell count for CN(C)S(=O)(=O)NC(c1ccccc1)c1ccccc1
Resp: 671

Req: Give the reported cell count for this compound. CC1CCN(C(=O)CSc2nnc(-c3ccc(S(=O)(=O)N4CCOCC4)cc3)n2C)CC1
Resp: 446

Req: Retrieve cell count measured for CC(C)Sc1nnc2n(CCc3ccccc3)c(=O)c3c4c(sc3n12)COC(C)(C)C4 and print it.
Resp: 532

Req: Provide only the value of recorded cell count for Cc1cccc(C)c1OCC(=O)Nc1cccc(-c2nnc(-c3ccccc3)o2)c1
Resp: 634

Req: Return cell count (reported value) for this compound: COc1ccc(Cn2nnnc2C(c2ccccn2)N2CCN(c3cc(Cl)ccc3C)CC2)cc1 (stereo unspecified)
Resp: 669

Req: Identify the reported cell count for the following entry. Cc1c(=O)n(OCc2c(F)cccc2F)c2ccccc2[n+]1[O-]
Resp: 542

Req: Return cell count for the following compound: CCSc1nnc(NC(=O)NCC(F)(F)F)s1
Resp: 580

Req: Assign cell count to the following record: CC(C)C(NC(=O)OCc1ccccc1)C(=O)OCC(=O)NCc1ccco1 (stereo unspecified)
Resp: 511

Req: For COc1ccc(C(=O)NCc2ccccc2OC)cc1 , write its cell count.
Resp: 590

Req: Give the reported cell count for this compound. CC(C)(C)C(=O)Cn1c[n+](N)cn1
Resp: 545

Req: Specify cell count for O=C(OCCN(CCOC(=O)c1ccncc1)S(=O)(=O)c1cccs1)c1ccncc1 and stop.
Resp: 888
